Measurement Kind: pIC50
Notebook: values listed as pIC50 are -log10 of the concentration (mol/L).

query: Please tell me: pIC50 of Cc1nn(C)c(C)c1N(C(F)F)S(=O)(=O)c1c(Cl)cc(CCCC2CCN(C)CC2)cc1Cl , system Voltage-gated inwardly rectifying potassium channel KCNH2 (Homo sapiens, UniProt Q12809)?
result: 6.22

---

- Experiment Notes: Maximum tolerated dose in orally twice daily dosed mouse
- Assay type: ADME, organism-based
- Condition Notes: in vivo, po
Measurement Kind: MTD (mg/kg)
Only the number, expressed in mg/kg, is required.

query: What value of MTD has been reported for the following molecule? Cc1nn(C)c(C)c1N(CC(F)(F)F)[S+](=O)([O-])c1c(Cl)cc(CCCC2CCN(C)CC2)cc1Cl
result: 150
